testSystem: Solute carrier organic anion transporter family member 1A1 (Rattus norvegicus, UniProt P46720)
Sequence (P46720 whole entry): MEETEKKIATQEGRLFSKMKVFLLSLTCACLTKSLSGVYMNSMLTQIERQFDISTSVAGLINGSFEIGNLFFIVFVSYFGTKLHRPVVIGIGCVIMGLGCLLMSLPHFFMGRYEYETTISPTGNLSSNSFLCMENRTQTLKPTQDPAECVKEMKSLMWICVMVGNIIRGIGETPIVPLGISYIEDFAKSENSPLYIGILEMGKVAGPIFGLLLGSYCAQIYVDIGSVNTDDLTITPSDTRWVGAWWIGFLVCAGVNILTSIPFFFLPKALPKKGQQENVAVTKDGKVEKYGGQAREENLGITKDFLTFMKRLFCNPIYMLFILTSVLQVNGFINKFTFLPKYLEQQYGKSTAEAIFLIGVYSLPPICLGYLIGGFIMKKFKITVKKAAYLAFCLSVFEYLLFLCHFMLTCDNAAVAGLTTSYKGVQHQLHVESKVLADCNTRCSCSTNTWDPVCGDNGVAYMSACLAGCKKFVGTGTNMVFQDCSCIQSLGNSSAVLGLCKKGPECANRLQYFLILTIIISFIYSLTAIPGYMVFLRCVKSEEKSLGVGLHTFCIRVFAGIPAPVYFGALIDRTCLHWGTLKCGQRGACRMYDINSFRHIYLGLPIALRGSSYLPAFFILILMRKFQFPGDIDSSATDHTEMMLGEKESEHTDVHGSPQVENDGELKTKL
assayNotes: TP_TRANSPORTER: inhibition of DNP-SG uptake (DNP-SG: 50 uM, DIDS: 250 uM) in Xenopus laevis oocytes
Type: functional, cell-based, Oocyte
Set-up: scale not given: the % may be the effect or the level left
conditionDetails: probe DNP-SG, read-out: Activity
measureName: activity at 250 µM

- molSmiles: "O=S(=O)(O)c1cc(N=C=S)ccc1/C=C/c1ccc(NC=S)cc1S(=O)(=O)O"
  measureName: "activity at 250 µM"
  measValue: "39%"
